Items are presented alongside their recorded growth inhibition.
# PROCEDURE DETAILS: NCI Yeast Anticancer Drug Screen. Data for the sgs1 mgt1 strain (AID 161);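 further: 0% = growth of cultures given vehicle only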
# TEST PARAMETERS: S. cerevisiae sgs1 mgt1 strain, at 50.0 µM, active compounds read high
The panel holds about 79,000 compounds, 15% with a hit somewhere; the sample as a whole holds those more often.
Number only, in %; omit the unit.

Examples from the recorded data:
COc1ccc(C2(CN(C)C)COc3cc(OC)c(OC)cc3C2=O)cc1OC (stereo unspecified)
-7
CN1CC(c2ccccc2)=Cc2c1ccc(N)c2N=N
-0.3
COC(=O)c1cc([O-])c2sc(C)c(C)[n+]2n1
25.7
CSc1nc2ncnc(NCc3ccc(Cl)cc3)c2[nH]1
-4.1
Cn1nnc(/N=C/c2ccccc2)n1
-6.25
CNC(=O)C1CCCN1C(=O)C(Cl)Cl (stereo unspecified)
0.9

Q: Endpoint output: growth inhibition of Nc1ccc(CCCCc2nc(N)nc(N)c2-c2ccc(Cl)c(Cl)c2)cc1 . Value?
Result: 88.8

----------
Reported growth inhibition by item:
# PROCEDURE DETAILS: NCI Yeast Anticancer Drug Screen. Data for the mlh1 rad18 strain (AID 175)
# TEST PARAMETERS: S. cerevisiae mlh1 rad18 strain growth inhibition; at 50.0 µM; active compounds read high
# Procedure: Growth inhibition of yeast strains with defined genetic alterations is measured as a screen for potential anti-cancer activity. Selected strains with alterations in DNA damage repair or cell cycle control were exposed to compounds and growth inhibition was measured relative to vehicle treated controls. The strain used in this assay is mlh1 rad18
About 79,000 compounds went through this panel and 15% of them were active in at least one assay; those are over-represented in the sample as a whole. Calls of active or inactive are those of the source. Rule as the data show it: active = growth inhibition above about 70%; inactive = the rest.

Q: What value of growth inhibition has been reported for the following compound? CC1(O)/C=C\C=C(\CO)C2CC(C)(C)C2(O)CC1 (stereo not drawn)
Result: -29.8% (inactive)

Q: Item under review: C/C(=N\N(C)/C=N/S(C)(=O)=O)c1ccccc1 . Reported growth inhibition?
Result: -3.25% (inactive)

Q: Recorded growth inhibition of CCN(CC)CCCC(C)n1c(-c2ccc(OC)cc2)nc2cc(Cl)ccc21 (stereo not drawn) , please.
Result: 4.6% (inactive)

Q: Which growth inhibition is listed for CCC(CC)(Cc1ccccc1)C(=O)O ?
Result: 36.4% (inactive)

----------
# PROCEDURE DETAILS: NCI Yeast Anticancer Drug Screen. Data for the mec2-1 strain (AID 157)
# TEST PARAMETERS: S. cerevisiae mec2-1 strain, at 50.0 µM, active compounds read high
# Procedure: Growth inhibition of yeast strains with defined genetic alterations is measured as a screen for potential anti-cancer activity. Selected strains with alterations in DNA damage repair or cell cycle control were exposed to compounds and growth inhibition was measured relative to vehicle treated controls. The strain used in this assay is mec2-1
This is part of a sample that, as a whole, favours compounds with a hit. Of some 79,000 tested, about 15% had one in any assay.
ATTRIBUTE MEASURED: growth inhibition (%)
Give the quantity in %, number only.

Example entries begin here.
Cc1cc(=O)oc2c(CNC(Cc3ccccc3)C(=O)O)c(O)ccc12 (stereo not given)
-40.6
CC(=O)OCC1OC(n2c(N)c(C#N)c(-c3ccccc3)c(C#N)c2=S)C(OC(C)=O)C(OC(C)=O)C1OC(C)=O (stereo not given)
11.2
O=[N+]([O-])C1CC(O)C(O)CC1c1ccc2c(c1)OCO2 (stereo not given)
7.25
CC1=CC(=O)C(=O)C2=C1OC1(C2)C(C)CCC2C3(C)CCC(O)C(C)(C)C3CCC21C (stereo not given)
89.8

Q: Recorded growth inhibition of Cc1cc(C(=O)O)ccc1C(=O)O , please.
Result: -31.6
